Provenance of the data: patent US11325936B2

Tgt: SpNanC (Streptococcus pneumoniae)
Sequence (A0A0H2UQE4 entry or part of it): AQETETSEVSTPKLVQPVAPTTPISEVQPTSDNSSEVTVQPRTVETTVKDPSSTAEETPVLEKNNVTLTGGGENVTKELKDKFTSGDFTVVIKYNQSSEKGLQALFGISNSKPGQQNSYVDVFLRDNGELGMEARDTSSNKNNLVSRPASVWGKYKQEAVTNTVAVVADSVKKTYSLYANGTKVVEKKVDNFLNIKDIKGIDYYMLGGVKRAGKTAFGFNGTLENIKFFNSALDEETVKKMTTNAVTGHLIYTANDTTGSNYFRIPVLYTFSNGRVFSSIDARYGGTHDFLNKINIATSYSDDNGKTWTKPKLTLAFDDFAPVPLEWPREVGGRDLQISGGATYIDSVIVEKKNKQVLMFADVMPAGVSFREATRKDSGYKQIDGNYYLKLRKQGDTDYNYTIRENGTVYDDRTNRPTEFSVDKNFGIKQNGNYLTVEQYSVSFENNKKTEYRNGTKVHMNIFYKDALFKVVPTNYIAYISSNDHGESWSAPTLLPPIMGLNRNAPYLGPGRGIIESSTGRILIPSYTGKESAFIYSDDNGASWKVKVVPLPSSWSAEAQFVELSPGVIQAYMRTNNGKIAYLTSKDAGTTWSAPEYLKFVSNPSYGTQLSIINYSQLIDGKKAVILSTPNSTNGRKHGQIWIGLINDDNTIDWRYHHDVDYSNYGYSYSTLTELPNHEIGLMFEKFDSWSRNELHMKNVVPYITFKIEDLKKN
Protocol Text: Sialidase inhibition assay (Example 4)
Assay type: biochemical
Test Context: pH 6.5, read-out: Percentage inhibition (%) against SpNanC
Would you mind labelling by inhibition at 100 µM? At or over 10% is Fulfilled, under is Not fulfilled.

See these solved cases before continuing.
>>> class("O=C(Cc1ccccc1)N[C@H]1[C@H]([C@H](O)[C@H](O)CO)OC(C(=O)O)=C[C@@H]1O [compound 15]")
"Fulfilled"
>>> class("CC(=O)N[C@H]1[C@H]([C@H](O)[C@H](O)CO)OC(C(=O)O)=C[C@@H]1O [compound 6, reference compound]")
"Fulfilled"
>>> class("O=C(CO)N[C@@H]1C(O)C=C(C(=O)O)OC1[C@H](O)[C@H](O)CO (stereo partly shown) [compound 7]")
"Fulfilled"

Has CC(=O)N[C@@H]1C(O)C=C(C(=O)O)OC1[C@H](O)[C@H](O)CNC(=O)C1CC1 (stereo partly shown) [compound 13] a recorded inhibition at 100 µM greater than or equal to 10%?
Fulfilled

Determine whether measured inhibition at 100 µM meets or exceeds 10% for CC(=O)N[C@@H]1C(O)C=C(C(=O)O)OC1C[C@H](O)CO (stereo partly shown) [compound 10]
Not fulfilled

For this molecule, is measured inhibition at 100 µM 10% or higher? CCCCC(=O)NC[C@@H](O)[C@@H](O)[C@@H]1OC(C(=O)O)=C[C@H](O)[C@H]1NC(C)=O [compound 12]
Fulfilled

Check this molecule for inhibition at 100 µM at or above 10%: CC(=O)NC[C@@H](O)[C@@H](O)[C@@H]1OC(C(=O)O)=C[C@H](O)[C@H]1NC(C)=O [compound 9]
Not fulfilled
